B1: ADAMTSL2 (parent)
chain: KKPPEESTCFERPCFKWYTSPWSE

Variants of: B1
Assay: protein stability index of a GFP-peptide fusion (GPS, HEK-293T) (PSI 1-6); higher = more stable;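 also: lentivirally expressed fusions sorted by FACS into six bins by GFP to DsRed ratio, PSI derived from sequencing read proportions per bin multiplied by bin number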
Conditions: c terminus: a fixed tail appended
Everything with protein stability index lower than 2 is 0; everything else, including exactly 2, is 1.

hey, is protein stability index for this one >= 2? SKPPEESTCFERPCFKWYTSPWSE 1

hey, is protein stability index for this one >= 2? KKPPEEGTCFERPCFKWYTSPWSE 1

Check the entry KKPPEESTCFERPCFCWYTSPWSE : does protein stability index equal or exceed 2? 1

Quick check, protein stability index >= 2? KKPPEESTCFERPCFKWYTSPWSG 1

Kindly determine if protein stability index recorded for KKPPEESTCFERYCFKWYTSPWSE is above or exactly 2. 0

Kindly determine if protein stability index recorded for KKPPEESMCFERPCFKWYTSPWSE is above or exactly 2. 1

Hi team, for KKPPEESTCFERPCFKWYTSPWCE , is the recorded protein stability index at or above 2? 1

Is reported protein stability index greater than or equal to 2 here: KKPPEESTCFERPHFKWYTSPWSE 1

Exam item: decide whether the reported protein stability index for KKPPEESTCFERCCFKWYTSPWSE is at least 2. 0

Decide: is the reported value of protein stability index for KKPPEESTCFERPCFKWYTSPWVE equal to or greater than 2? 1

Hello, I need to know if KKPPKESTCFERPCFKWYTSPWSE has measured protein stability index not below 2. Thanks! 0

Reported protein stability index reaches at least 2 for KKPKEESTCFERPCFKWYTSPWSE ? 1

Hello, I need to know if KKPPEESTCFERPCFKWYTSPWKE has measured protein stability index not below 2. Thanks! 1

In plain terms: is recorded protein stability index at least 2 for KKPPEESTCFYRPCFKWYTSPWSE ? 1

Could you tell me if the measured protein stability index of KKPPEESTCFERPCFEWYTSPWSE reaches 2 or more? 1

Determine whether measured protein stability index meets or exceeds 2 for KKPPEESTFFERPCFKWYTSPWSE 1

Hello, I need to know if KKPPEESTCFERPCFKWYTSLWSE has measured protein stability index not below 2. Thanks! 1

API: above_or_equal(metric=protein stability index, cutoff=2) for item KKPPEESTCFERPCFKWYTHPWSE 1

Does the variant KKPPIESTCFERPCFKWYTSPWSE have recorded protein stability index that is 2 or more? 1

Reported protein stability index reaches at least 2 for KKPTEESTCFERPCFKWYTSPWSE ? 1

Would you say KKPPEESTHFERPCFKWYTSPWSE shows protein stability index at minimum 2? 1

Textbook exercise: given the entry KKPHEESTCFERPCFKWYTSPWSE , state whether its protein stability index is greater than or equal to 2. 0

Could you verify whether the entry KKPPEESTCFERPCFKWYTSPWSA shows protein stability index of no less than 2? 1

Could you tell me if the measured protein stability index of KKPFEESTCFERPCFKWYTSPWSE reaches 2 or more? 0

Decide: is the reported value of protein stability index for KKPPEESTCFERPCFKWYVSPWSE equal to or greater than 2? 1

Check the entry KKPPEESTCFERPCFKWYTSWWSE : does protein stability index equal or exceed 2? 0

Answer whether protein stability index of KKPPDESTCFERPCFKWYTSPWSE is greater than or equal to 2. 1
